For each of the compounds below, state its IC50.
- TARGET_OR_TEST_SYSTEM: MLCK (Homo sapiens, UniProt Q15746)
- Sequence (Q15746 whole entry): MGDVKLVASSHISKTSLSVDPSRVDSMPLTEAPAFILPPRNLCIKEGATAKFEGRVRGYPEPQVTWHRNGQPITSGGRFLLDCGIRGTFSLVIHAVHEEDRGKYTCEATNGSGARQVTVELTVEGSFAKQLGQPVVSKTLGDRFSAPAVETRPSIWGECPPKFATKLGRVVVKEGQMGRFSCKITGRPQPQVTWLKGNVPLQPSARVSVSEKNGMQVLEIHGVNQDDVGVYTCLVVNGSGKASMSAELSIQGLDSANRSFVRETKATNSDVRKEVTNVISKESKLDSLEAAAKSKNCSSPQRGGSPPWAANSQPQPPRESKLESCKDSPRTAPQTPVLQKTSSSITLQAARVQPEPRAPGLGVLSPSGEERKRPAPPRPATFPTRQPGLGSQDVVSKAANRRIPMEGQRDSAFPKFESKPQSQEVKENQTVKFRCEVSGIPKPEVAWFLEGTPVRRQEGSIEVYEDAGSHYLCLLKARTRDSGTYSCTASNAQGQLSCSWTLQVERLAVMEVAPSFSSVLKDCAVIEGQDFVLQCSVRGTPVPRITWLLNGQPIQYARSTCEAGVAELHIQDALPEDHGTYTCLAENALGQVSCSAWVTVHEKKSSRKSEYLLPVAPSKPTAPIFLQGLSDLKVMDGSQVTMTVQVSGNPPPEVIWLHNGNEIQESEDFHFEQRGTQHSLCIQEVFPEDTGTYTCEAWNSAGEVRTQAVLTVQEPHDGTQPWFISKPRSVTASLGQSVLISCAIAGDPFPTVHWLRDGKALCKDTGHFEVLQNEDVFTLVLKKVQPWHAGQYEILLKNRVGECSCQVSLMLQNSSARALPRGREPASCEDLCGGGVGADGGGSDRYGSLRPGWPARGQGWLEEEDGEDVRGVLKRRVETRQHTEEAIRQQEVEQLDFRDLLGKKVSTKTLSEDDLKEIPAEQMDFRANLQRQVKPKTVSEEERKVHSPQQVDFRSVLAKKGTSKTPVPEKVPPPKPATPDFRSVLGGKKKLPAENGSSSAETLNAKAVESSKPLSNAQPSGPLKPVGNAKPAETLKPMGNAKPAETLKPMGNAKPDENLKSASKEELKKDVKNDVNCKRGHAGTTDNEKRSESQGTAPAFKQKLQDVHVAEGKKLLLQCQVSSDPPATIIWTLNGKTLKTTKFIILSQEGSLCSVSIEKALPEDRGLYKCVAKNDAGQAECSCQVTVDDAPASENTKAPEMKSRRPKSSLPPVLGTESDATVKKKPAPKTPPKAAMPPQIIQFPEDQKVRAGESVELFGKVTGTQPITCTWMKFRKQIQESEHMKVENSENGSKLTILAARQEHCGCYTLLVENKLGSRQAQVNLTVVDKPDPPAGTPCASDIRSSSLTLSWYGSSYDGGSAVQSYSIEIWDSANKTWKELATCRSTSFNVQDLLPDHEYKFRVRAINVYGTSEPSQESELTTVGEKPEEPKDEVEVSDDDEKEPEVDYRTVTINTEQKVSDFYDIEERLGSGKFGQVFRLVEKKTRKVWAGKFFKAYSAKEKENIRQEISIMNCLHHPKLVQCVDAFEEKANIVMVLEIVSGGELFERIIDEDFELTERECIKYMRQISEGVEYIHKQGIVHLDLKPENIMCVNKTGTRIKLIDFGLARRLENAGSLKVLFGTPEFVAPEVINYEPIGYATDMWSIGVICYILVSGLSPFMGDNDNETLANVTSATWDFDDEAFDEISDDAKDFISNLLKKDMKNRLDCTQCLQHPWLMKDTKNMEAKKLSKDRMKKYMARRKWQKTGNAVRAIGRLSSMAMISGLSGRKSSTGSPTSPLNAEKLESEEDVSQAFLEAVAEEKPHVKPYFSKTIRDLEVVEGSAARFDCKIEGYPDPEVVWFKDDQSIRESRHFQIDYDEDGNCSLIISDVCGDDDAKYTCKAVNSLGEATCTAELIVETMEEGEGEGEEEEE
- ASSAY_INFO: MLCK inhibitory activity screen (32P-ATP peptide substrate phosphorylation)
- Assay type: biochemical
- ASSAY_CONTEXT: 20 μM peptide substrate, 200 μM ATP, 20 min at 25° C.; read-out: MLCK (μM), in vitro inhibition of kinases
- Protocol: MLCK inhibitory activity screens were done by incubation with 20 μM peptide substrate ([…]), 200 μM ATP and [^32P]-ATP (2.5 μCi per reaction) in assay buffer (50 mM HEPES, pH 7.5 with KOH, 5 mM MgCl2, 0.15 M KCl, 0.015 M NaCl, 1 mM DTT) with 0.1 mM CaCl2 and 1 μM calmodulin (New England Biolabs, MA). […] Reactions were spotted onto P-81 paper (Whatman, Clifton, N.J.), washed with 75 mM H3PO4 and 95% EtOH, and quantified by scintillation counting in EcoScintO (National Diagnostics, Atlanta, Ga.). […]
Answer with a number only, understood to be in µM.

Exam item: Returns the measured IC50 for the input compound. Input: CN1CCCC1CCNC(=O)CCCCCCCCCCn1nc(-c2ccccc2)ccc1=N (stereo not drawn)
Marked response: 13.3

Exam item: One more compound: N=c1ccc(-c2ccccc2)nn1CCCCCCCCCCC(=O)NCCC1CCCC1
Marked response: 2.5

Exam item: One more compound: N=c1ccc(-c2ccccc2)nn1CCCCCCCCCCC(=O)NCCc1c[nH]cn1
Marked response: 6.3
